- system-name: kinases (Homo sapiens)
- Construct: purchased Eurofins/DiscoveRx; host or cells: E. coli BL21-derived host (T7 phage display) for most kinases; HEK-293 for the rest
- Sequence (P17948 27-1338): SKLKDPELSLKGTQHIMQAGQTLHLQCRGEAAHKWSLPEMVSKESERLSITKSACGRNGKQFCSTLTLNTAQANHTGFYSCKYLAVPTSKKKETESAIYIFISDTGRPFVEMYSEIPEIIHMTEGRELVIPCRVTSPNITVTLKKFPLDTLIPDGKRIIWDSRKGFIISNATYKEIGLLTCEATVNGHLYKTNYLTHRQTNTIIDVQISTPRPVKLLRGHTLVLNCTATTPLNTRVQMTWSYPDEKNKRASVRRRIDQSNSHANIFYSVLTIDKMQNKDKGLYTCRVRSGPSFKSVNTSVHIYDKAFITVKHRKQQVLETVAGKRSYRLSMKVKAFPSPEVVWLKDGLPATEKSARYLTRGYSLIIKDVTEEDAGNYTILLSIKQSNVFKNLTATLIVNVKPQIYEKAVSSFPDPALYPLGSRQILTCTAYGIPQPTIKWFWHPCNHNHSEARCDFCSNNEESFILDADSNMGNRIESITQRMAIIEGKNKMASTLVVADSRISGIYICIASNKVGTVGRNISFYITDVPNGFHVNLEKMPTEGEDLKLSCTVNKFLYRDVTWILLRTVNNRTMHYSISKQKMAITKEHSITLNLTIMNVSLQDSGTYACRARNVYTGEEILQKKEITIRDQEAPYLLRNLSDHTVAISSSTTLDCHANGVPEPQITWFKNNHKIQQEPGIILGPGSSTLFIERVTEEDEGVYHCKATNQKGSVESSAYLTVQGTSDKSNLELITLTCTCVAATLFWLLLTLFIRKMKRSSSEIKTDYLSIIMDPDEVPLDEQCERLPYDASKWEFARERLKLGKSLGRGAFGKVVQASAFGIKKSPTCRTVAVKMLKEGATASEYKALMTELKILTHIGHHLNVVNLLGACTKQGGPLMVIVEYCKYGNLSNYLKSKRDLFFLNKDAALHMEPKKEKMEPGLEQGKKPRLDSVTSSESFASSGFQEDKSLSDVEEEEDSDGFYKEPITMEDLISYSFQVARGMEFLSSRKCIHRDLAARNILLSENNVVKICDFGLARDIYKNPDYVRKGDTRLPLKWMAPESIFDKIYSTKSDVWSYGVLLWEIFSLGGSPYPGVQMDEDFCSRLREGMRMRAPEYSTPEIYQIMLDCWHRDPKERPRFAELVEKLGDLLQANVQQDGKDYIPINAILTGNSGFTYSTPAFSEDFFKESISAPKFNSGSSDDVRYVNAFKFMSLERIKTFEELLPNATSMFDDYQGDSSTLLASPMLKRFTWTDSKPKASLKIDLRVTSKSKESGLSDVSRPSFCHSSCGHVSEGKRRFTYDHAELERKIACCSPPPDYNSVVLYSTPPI
- procedure-details: KINOMEscan kinase binding assay (Eurofins/DiscoveRx), % Ctrl
- experimental-context: 1 μM; FLT1
assay-endpoint: % Ctrl, FLT1 (% Ctrl)

smiles-notation	measured-result
Cc1cc2c([nH]1)/C=C1\C(=O)Nc3ccc(cc31)-c1ccnn1CCNCCNC2=O	96

(I) Cc1cc2c([nH]1)/C=C1\C(=O)Nc3ccc(cc31)OCCOCCN(C)C2=O
(II) Cc1cc2c([nH]1)/C=C1\C(=O)Nc3ccc(cc31)CN(C)C(=O)COCCNC2=O
(III) Cc1cc2c([nH]1)/C=C1\C(=O)Nc3ccc(cc31)-c1cnn(C)c1COCCN(C)C2=O
Input: hey, can you rank those compounds up there by % Ctrl, FLT1? biggest number first please Could you list the labels in the order requested?
Output: I, II, III
(I: 83 % Ctrl, II: 46 % Ctrl, III: 13 % Ctrl)

Hello, the source for this data is patent US20230257396A1, in case you need it.
